experiment: Antitumor activity against ascitic P388 leukemia in CDF-1 mice, treatment i.p. on day 1; assay type: in vivo; settings: mouse, in vivo, ip, CDF-1 mice; read-out: Maximal Tolerated Dose (Mx TD)
parameter_measured: MTD (mg/kg)
State just the number; it will be interpreted in mg/kg.

Q) Give its MTD value. Item: COc1cccc2c1C(=O)c1c(O)c3c(c(O)c1C2=O)C[C@@](O)(C(C)=O)C[C@@H]3O[C@H]1C=C[C@@H](O)[C@H](C)O1
A) 100
